# Test system: RAW-Dual
# assay-notes: NF-kB SEAP reporter activity, fold change vs agonist alone; cytotoxicity flag (confluency mask): not cytotoxic; higher = enhanced NF-kB activity
# run-conditions: agonist: Pam2CSK4 (TLR2/6) 0.1 ug/mL
In all, about 2,900 compounds were measured (“NF-kB SEAP reporter activity, fold change vs agonist alone”: median about 0.99, highest 2% from about 2.6 on). This is one part of a sample in which the highest values are shown more often than they occur.
Provide the recorded NF-kB SEAP reporter activity for the entries that follow.

Some compounds with recorded NF-kB SEAP reporter activity:
1. O=C1C2C3CCC(C3)C2C(=O)N1CC1CCCCC1CN1CCN(c2nsc3ccccc23)CC1 (stereo not given) (library stock concentration (final ~1000-fold dilution): 10 mM)
0.983
2. COc1ccc2c(OC3CC4C(=O)NC5(C(=O)NS(=O)(=O)C6CC6)CC5/C=C\CCCCN(C)C(=O)C4C3)cc(-c3nc(C(C)C)cs3)nc2c1C (stereo not given) (library stock concentration (final ~1000-fold dilution): 10 mM)
0.842
3. Cc1cnc(C(=O)NC2CCCCC/C=C\C3CC3(C(=O)NS(=O)(=O)C3CC3)NC(=O)C3CC(Oc4nc5ccccc5c5ccccc45)CN3C2=O)cn1 (stereo not given) (library stock concentration (final ~1000-fold dilution): 10 mM)
0.744

Batch of 5 compounds: report NF-kB SEAP reporter activity for each.
1. O=C(O)CCN1C(=O)C(=Cc2ccc(-c3ccc([N+](=O)[O-])cc3)o2)SC1=S (library stock concentration (final ~1000-fold dilution): 10 mM)
2. Cc1nc2ccc(CN(C)c3ccc(C(=O)NC(CCC(=O)O)C(=O)O)s3)cc2c(=O)[nH]1 (stereo not given) (library stock concentration (final ~1000-fold dilution): 10 mM)
3. CC(=O)c1c(C)c2cnc(Nc3ccc(N4CCNCC4)cn3)nc2n(C2CCCC2)c1=O.O=S(=O)(O)CCO (library stock concentration (final ~1000-fold dilution): 10 mM water)
4. C=C1CCC2C(C)(COC(=O)CCC(=O)O)C(OC(=O)CCC(=O)O)CCC2(C)C1C=CC1=CCOC1=O (stereo not given) (library stock concentration (final ~1000-fold dilution): 10 mM)
5. CS(=O)(=O)CCNCc1ccc(-c2ccc3ncnc(Nc4ccc(OCc5cccc(F)c5)c(Cl)c4)c3c2)o1.Cc1ccc(S(=O)(=O)O)cc1.Cc1ccc(S(=O)(=O)O)cc1.O (library stock concentration (final ~1000-fold dilution): 10 mM)

[reply]
1. 0.104
2. 1.31
3. 0.752
4. 1.26
5. 0.755

Batch of 4 compounds: report NF-kB SEAP reporter activity for each.
1. CS(=O)(=O)CCNCc1ccc(-c2ccc3ncnc(Nc4ccc(OCc5cccc(F)c5)c(Cl)c4)c3c2)o1.Cc1ccc(S(=O)(=O)O)cc1.Cc1ccc(S(=O)(=O)O)cc1 (library stock concentration (final ~1000-fold dilution): 10 mM)
2. CCOC(=O)C(CCc1ccccc1)NC1CSC(c2cccs2)CN(CC(=O)O)C1=O.Cl (stereo not given) (library stock concentration (final ~1000-fold dilution): 10 mM)
3. O=C(/C=C/c1ccc(O)c(O)c1)O[C@@H]1CC(O)(C(=O)O)C[C@@H](OC(=O)/C=C/c2ccc(O)c(O)c2)C1O (stereo not given in full) (library stock concentration (final ~1000-fold dilution): 10 mM)
4. O=P(O)(O)Oc1cccc2ccccc12 (library stock concentration (final ~1000-fold dilution): 10 mM)

[reply]
[0.851, 0.946, 1.11, 1.16]
